Values compiled from paper PMC6614557.

TARGET OR SYSTEM: ONECUT2 (OC2), OC2-HOX domain (Homo sapiens, UniProt O95948)
Sequence (O95948 330-485): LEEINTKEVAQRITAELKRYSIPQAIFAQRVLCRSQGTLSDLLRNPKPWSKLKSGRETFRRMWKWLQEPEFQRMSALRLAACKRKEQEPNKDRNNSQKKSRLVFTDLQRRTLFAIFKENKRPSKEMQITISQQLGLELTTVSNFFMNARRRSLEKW
RECORDED ENDPOINT: pKd
Give bare numbers, as −log10 of the molar value.

Request: Provide pKd value for the following molecule: NC(CO)C(=O)N/N=C/c1ccc(O)c(O)c1O (racemic)
Response: 5.13
